Test system: P. falciparum stage V gametocytes
Set-up: BacTiter-Glo ATP luminescence viability of purified stage V gametocytes in 384-well plates, per cent inhibition versus DMSO
Conditions: 48 h, 5 µM; inhibitor
Out of some 13,000 compounds screened, about 3,200 (25%) showed an effect of 50% or more. The list shows a part of the results.
# label = criterion met if % Inhibition >= 60% else criterion not met

>>> df
                                   molecule        label_value
0  O=C(Nc1ccc(OC2CCN(Cc3ccco3)CC2)c(Cl)c1)c1ccc2ncccc2c1      criterion met
1  CO/C(=C\C=C\c1cc2cc(Cl)c(Cl)cc2[nH]1)C(=O)NCCCNC12CC3CC(CC(C3)C1)C2      criterion met
2  COc1ccc2nccc(NCC3(O)CCN(CC(O)c4ccc5c(c4)NC(=O)CS5)CC3)c2n1 (centres unmarked)  criterion not met
3  CO/C(=C\C=C\c1cc2cc(Cl)c(Cl)cc2[nH]1)C(=O)NCCCN1CCN(Cc2ccccc2)CC1  criterion not met
4  O=C(Nc1ccc(F)cc1F)NC1CCN(c2ccnc3cc(Cl)ccc23)C1 (centres unmarked)  criterion not met
5  CCN(CC)CCCNC(=O)/C(=C/C=C/c1cc2cc(Cl)c(Cl)cc2[nH]1)OC  criterion not met

Okay, next one:
State whether the measured % Inhibition reaches 60%, counting equality as reaching it, for S=C(NCCN1CCOCC1)Nc1ccccc1 criterion not met
